# Test System: Ubiquitin-conjugating enzyme E2 N (Homo sapiens);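 further: Dose-response confirmation in a TR-FRET assay detecting UBC13-driven polyubiquitin chain formation, inhibition measured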
# Sequence (P61088 whole entry): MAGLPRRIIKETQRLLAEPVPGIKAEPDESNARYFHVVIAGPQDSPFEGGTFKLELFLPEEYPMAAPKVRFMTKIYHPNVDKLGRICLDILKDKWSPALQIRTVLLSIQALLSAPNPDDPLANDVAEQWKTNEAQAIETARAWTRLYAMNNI
# Type: functional
Calls of active or inactive are those of the source.
Possible outcomes: active, inactive

1) COc1ccc(OCC(=O)NNC(=S)NC(=O)C2CC2)cc1 = active
2) COc1ccccc1NC(=O)COC(=O)C12CC3CC(CC(Br)(C3)C1)C2 = inactive
3) Cc1ccc(-c2csc(NC(=O)CSc3nc4ccccc4c(=O)n3CCCN(C)C)n2)cc1 = inactive
4) COc1cc(-c2[nH]c(C(=O)NC3CCN(Cc4ccccc4)CC3)cc3c4ccccc4nc2-3)cc(OC)c1OC = inactive
5) Cc1ccc2c(c1)C1C[N+](C)(CC(=O)c3ccc(Cl)cc3Cl)CCC1N2C(=O)c1ccc(F)cc1 (stereo unspecified) = inactive
6) CC(=O)n1cc([C@H]2C=C(C(=O)Nc3ccccc3)O[C@@H](OCc3ccc(CO)cc3)C2)c2ccccc21 = inactive

* * *

# Test System: Replicative DNA helicase DnaB (Mycobacterium tuberculosis)
# Assay: DnaB intein splicing inhibitors, dose response, biochemical, cell-free fluorescence (AID 449749)
# Type: functional
Calls of active or inactive are those of the source.
Possible outcomes: y (active), n (inactive)

1) CCOC(=O)c1sc(N(Cc2ccccc2)C(=O)CCl)nc1C = y
2) COc1cc(/C=C2/SC(=S)NC2=O)ccc1OS(=O)(=O)c1ccc(C)cc1 = y
3) CCOC(=O)N1C(=O)[C@](c2ccc(Cl)cc2)(C(C)C)N1C(=O)OCC = y
4) Cc1ccc(C(=O)NC(C#N)=C(Cl)Cl)cc1 = y
5) N#CC1(C#N)CC(C=O)=C(N)C1(C#N)CC(=O)C12CC3CC(CC(C3)C1)C2 (stereo unspecified) = n
6) CCOC(=O)CSCCOc1ccc(C=C2C(=O)NC(=O)NC2=O)cc1OC = y
7) COc1ccc(N(C(=O)c2ccco2)S(=O)(=O)c2cccs2)cc1 = y
8) O=C1CCN(N=Nc2cccc(Cl)c2)N1 = y
9) CC(C)Cn1c(N)c(S(=O)(=O)c2cccs2)c2nc3ccccc3nc21 = n
10) CSc1nnc(NC(=O)c2nc(S(=O)(=O)Cc3cccc(C)c3)ncc2Cl)s1 = y
11) C#CC(=O)N(c1cc(OC)ccc1OC)C(C(=O)NC1CCCC1)c1cccs1 (stereo unspecified) = y

* * *

# Assay: cytotoxicity toward NIH3T3 fibroblasts, dose response, counter-screen, cell-based, ATP luminescence, mouse fibroblasts (AID 2010);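 further: cells exposed to compound for about 90 hours before reading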
# Format: functional
Active and inactive are the calls of the source.
Here, each record is paired with measured EC50 data.
Reported Property: EC50

1. O=[N+]([O-])c1nn(-c2ccc3c(c2)OCCO3)[n+]([O-])c1NCc1ccc(F)cc1 = > 60 µM (inconclusive)
2. CCN1CCN(c2ccc(S(=O)(=O)N3CCCCC3)cc2NC(=O)COc2ccccc2)CC1 = > 60 µM (not active)
3. CCOc1cc(CNCc2ccccc2)ccc1OCc1ccc(Cl)cc1 = > 16 µM (not active)
4. COC1CCN(Cc2c(C(=O)N3CCN(C4CCCCC4)CC3)nc3ccccn23)CC1 = > 60 µM (not active)
5. CCOC(=O)C1(CCOc2ccccc2)CCN(Cc2cccc3c2OCO3)CC1 = > 60 µM (not active)
6. Fc1cccc(NC(=S)N2CCn3cccc3C2c2cccnc2)c1 (configuration not stated) = > 60 µM (not active)
7. CC1(C)N=C(N)N=C(N)N1c1ccc(Oc2ccc(Cl)cc2)c(Cl)c1 = 14.3 µM (active)
8. O=C(C1CCCN(Cc2ccc(Cl)cc2)C1)N1CCCCC1 (configuration not stated) = > 30 µM (not active)
9. O=C(c1ccc2c3c(cccc13)CC2)C1CCCN(Cc2cccnc2)C1 (configuration not stated) = > 60 µM (not active)
10. COc1cc(-c2[nH]c(C(=O)NC3CCN(Cc4ccccc4)CC3)cc3c4ccccc4nc2-3)cc(OC)c1OC = 5.61 µM (active)
11. O=C(NCC(c1cccnc1)N1CCN(c2ccccc2F)CC1)OCc1ccccc1 (configuration not stated) = > 60 µM (not active)
12. CCOc1ccc(C(=O)c2ccc([N+](=O)[O-])cc2Cl)cc1 = > 30 µM (not active)

* * *

# Test System: Nucleotide-binding oligomerization domain-containing protein 2 (Homo sapiens, UniProt Q9HC29)
# Sequence (Q9HC29 whole entry, the tested form may be a part): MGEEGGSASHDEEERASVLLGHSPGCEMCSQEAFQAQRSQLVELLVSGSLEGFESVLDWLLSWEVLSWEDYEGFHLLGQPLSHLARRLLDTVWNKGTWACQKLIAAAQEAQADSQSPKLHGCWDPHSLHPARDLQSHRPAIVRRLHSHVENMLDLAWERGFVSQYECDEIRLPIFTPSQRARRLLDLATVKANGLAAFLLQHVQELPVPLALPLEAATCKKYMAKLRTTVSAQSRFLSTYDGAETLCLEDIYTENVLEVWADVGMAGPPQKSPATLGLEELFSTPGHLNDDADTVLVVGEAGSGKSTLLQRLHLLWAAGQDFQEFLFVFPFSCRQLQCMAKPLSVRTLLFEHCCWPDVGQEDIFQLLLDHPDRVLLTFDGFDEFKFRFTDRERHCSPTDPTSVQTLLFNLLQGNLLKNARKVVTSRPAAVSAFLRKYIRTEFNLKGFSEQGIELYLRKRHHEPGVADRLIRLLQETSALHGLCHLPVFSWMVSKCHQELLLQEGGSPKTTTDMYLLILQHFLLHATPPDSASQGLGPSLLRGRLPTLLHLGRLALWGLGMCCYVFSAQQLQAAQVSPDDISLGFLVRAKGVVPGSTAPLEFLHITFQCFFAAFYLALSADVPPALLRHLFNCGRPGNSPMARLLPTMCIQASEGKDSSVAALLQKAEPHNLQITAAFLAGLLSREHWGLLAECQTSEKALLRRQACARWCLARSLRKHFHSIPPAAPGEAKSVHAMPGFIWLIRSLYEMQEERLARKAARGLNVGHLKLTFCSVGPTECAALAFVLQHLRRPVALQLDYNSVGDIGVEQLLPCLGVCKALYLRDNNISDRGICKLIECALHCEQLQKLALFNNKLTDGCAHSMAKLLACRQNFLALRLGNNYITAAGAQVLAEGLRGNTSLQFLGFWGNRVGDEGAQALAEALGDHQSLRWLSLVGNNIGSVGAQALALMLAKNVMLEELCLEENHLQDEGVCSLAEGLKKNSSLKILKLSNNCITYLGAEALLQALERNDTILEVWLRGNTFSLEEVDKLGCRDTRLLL
# Assay: NOD2 signaling inhibitors, cell-based, luminescence, uHTS, HEK293 (AID 1566)
# Format: functional
Activity calls are given as the source filed them.
Possible outcomes: Y (active), N (inactive)

1) O=C1C=C(c2ccccc2)C[C@H](c2cccs2)[C@H]1n1nnc([N+](=O)[O-])n1 = Y
2) COc1ccc(N(Cc2cc3cc(OC)ccc3[nH]c2=O)S(=O)(=O)c2ccc(NC(C)=O)cc2)cc1 = N
3) COc1ccc(CCNC(=O)c2ccc3c(c2)N(Cc2ccccc2)CCS3)cc1OC = N
4) Cc1cc(C(=O)Nc2ccccc2C(=O)O)ccc1NC(=O)COc1ccccc1Cl = Y

* * *

# Test System: Leucine aminopeptidase (Plasmodium falciparum 3D7, UniProt Q8IL11)
# Sequence (Q8IL11 whole entry): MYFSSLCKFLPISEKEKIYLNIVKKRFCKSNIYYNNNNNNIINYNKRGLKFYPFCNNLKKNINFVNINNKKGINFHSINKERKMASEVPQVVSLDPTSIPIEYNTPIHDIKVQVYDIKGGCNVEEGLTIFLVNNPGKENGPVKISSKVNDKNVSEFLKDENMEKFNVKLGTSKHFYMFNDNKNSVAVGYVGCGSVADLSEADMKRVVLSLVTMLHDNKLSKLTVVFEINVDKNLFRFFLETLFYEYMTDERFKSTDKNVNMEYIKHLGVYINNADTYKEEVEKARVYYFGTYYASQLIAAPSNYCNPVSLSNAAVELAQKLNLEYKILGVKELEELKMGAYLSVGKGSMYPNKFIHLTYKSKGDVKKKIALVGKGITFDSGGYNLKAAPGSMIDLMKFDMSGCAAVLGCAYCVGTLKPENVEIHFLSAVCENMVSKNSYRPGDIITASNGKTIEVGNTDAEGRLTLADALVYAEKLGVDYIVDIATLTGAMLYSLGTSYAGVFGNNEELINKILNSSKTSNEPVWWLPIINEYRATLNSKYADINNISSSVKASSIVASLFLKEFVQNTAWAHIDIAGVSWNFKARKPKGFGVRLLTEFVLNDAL
# Assay: P. falciparum M17LAP inhibitors, primary screen, biochemical, fluorogenic H-Leu-NHMec substrate, 1536-well (AID 1619)
# Format: functional
The source made the active and inactive calls.
Reported Property: IC50

1) COc1ccc(NC(=O)Nc2ccc3oc(C)nc3c2)cc1 = 14.8 µM (active)
2) CCOC(=O)c1c(-c2ccc(C)c(C)c2)csc1NC(=O)C1CC=CCC1C(=O)O (stereo unspecified) = 10.3 µM (active)
3) CCOC(=O)c1cnn2cc(-c3[nH]ncc3[N+](=O)[O-])cnc12 = 5.26 µM (active)
4) S=C1NC(c2ccccc2)N2C(=S)NC(c3ccccc3)N12 (stereo unspecified) = 20.9 µM (active)
5) Cc1ccc(-c2cccc(NC(=O)C3C4C=CC(C4)C3C(=O)O)c2)o1 (stereo unspecified) = 3.86 µM (active)
6) Cc1cc(=O)c2c(O)c(O)ccc2o1 = 110 µM (active)

* * *

# Test System: FAD-linked sulfhydryl oxidase ALR (Homo sapiens)
# Sequence (P55789 whole entry): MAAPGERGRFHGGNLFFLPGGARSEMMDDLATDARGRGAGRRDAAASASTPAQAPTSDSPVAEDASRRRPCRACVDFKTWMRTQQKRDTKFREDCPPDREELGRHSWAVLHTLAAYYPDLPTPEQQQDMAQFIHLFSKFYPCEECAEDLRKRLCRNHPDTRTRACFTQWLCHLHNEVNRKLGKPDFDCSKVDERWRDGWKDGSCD
# Assay: inhibitors of human ALR sulfhydryl oxidase, dose response, biochemical, H2O2 detection, luminescence, cherry-pick (AID 493248)
Activity calls are given as the source filed them.
Reported Property: AC50

1. CC(NC(=O)CCCCCNC(=O)N1CCn2c1nc1ccccc12)c1ccccc1 (stereo unspecified) = 4.51 µM (active)
2. COc1ccc(Br)cc1-c1nc(CCl)cs1 = 14.1 µM (active)
3. O=C(Cc1ccccc1)NNc1c2ccccc2nc2ccccc12 = 2.43 µM (active)
4. Cc1ccc(Nc2nc(CSc3n[nH]c(N)n3)cs2)cc1 = < 0.005 µM (active)
5. COc1ccc(CC(=O)N/N=C(\C)CC(=O)Nc2ccc(N(C)C)cc2)cc1 = 2.04 µM (active)
6. Cc1cccc(-n2c(S)nnc2-c2ccco2)c1 = 5.51 µM (active)

* * *

# Test System: Streptokinase A (Streptococcus pyogenes serotype M1, UniProt P10520)
# Sequence (P10520 whole entry): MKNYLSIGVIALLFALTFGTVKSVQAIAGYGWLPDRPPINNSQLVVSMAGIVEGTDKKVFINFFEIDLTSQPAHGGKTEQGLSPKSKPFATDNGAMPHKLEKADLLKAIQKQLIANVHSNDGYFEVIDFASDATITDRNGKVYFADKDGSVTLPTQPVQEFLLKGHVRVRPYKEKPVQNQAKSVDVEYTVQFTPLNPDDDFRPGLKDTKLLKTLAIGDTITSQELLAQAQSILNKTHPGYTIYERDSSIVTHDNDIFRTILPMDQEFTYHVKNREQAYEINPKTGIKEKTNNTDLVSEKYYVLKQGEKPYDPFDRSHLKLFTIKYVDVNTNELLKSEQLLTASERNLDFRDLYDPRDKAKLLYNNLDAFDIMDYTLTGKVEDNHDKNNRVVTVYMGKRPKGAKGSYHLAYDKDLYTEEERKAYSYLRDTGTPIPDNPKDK
# Assay: S. pyogenes streptokinase expression inhibitors, potency, dose response, plasminogen activation absorbance, OD405 (AID 1914);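 further: secreted streptokinase activity via plasminogen activation per viability signal from cell pellet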
# Type: functional, Streptococcus pyogenes M1 GAS
The source made the active and inactive calls.
Here, each record is paired with measured EC50 data.
Reported Property: EC50

1) S=C(NCCC(c1ccccc1)c1ccccc1)Nc1cccc(Cl)c1 = 15.3 µM (active)
2) Cc1nn(-c2ccccc2)c(C)c1/C=N/NC(=O)c1cc(-c2cccc3ccccc23)[nH]n1 = > 150 µM (not active)
3) O=[N+]([O-])/C=C/c1c(OCc2ccccc2)ccc2ccccc12 = 1.2 µM (active)
4) CCOC(=O)c1cnn(-c2nc(-c3cccc(F)c3)cs2)c1C(F)(F)F = 20.8 µM (active)
5) O=C(O)c1cc(-c2ccc(-c3c(-c4ccc5c(c4)OCO5)noc3-c3ccsc3)cc2)nc2ccccc12 = > 150 µM (not active)
6) CCCCCCCCCc1nc2sc3c(c2c(=O)n1NC(=O)c1ccccc1[N+](=O)[O-])CC(C)(C)OC3 = 2.23 µM (active)
7) CC(C)CN(C(=O)COc1ccc(-c2nnco2)cc1)C1CCS(=O)(=O)C1 (stereo not given) = > 150 µM (not active)
8) O=C(NCc1nc(-c2ccc(C(F)(F)F)cc2)no1)Nc1cc(Cl)cc(Cl)c1 = > 150 µM (not active)
9) COc1cccc(/C=N/Nc2cc(N3CCOCC3)ncn2)c1O = > 150 µM (not active)
10) Cc1cccc(C)c1OCC(=O)Nc1ccccc1N1CCCCC1 = 4.15 µM (active)

* * *

# Test System: Genome polyprotein (dengue virus type 2)
# Assay: Dengue-2 NS5 methyltransferase inhibitors, primary screen, biochemical, confirmation dose response (AID 588689)
# Assay type: functional
Calls of active or inactive are those of the source.
Here, each record is paired with measured IC50 data.
Reported Property: IC50

1) CC1OC(CC(=O)O)CC2=C1C(=O)c1c(O)cccc1C2=O (stereo not given) = 5.04 µM (active)
2) COc1cccc(/C=C2\Oc3cc(OCC(=O)N4Cc5ccccc5C[C@H]4C(=O)O)ccc3C2=O)c1 = 43.4 µM (active)
3) O=C(CS(=O)(=O)c1ccccc1)c1cc2cc(F)ccc2oc1=O = > 100 µM (active)
4) Cc1nc2nc(-c3cccs3)cn2nc1C = 17.6 µM (active)
5) CCOC(=O)c1c(-c2ccc(C)c(C)c2)csc1NC(=O)C1CC=CCC1C(=O)O (stereo not given) = 43.5 µM (active)
